Catalogue of compounds with associated hepatocyte CLint
assay: Intrinsic clearance in human hepatocytes assessed per million cells; assay type: ADME, cell-based, Hepatocyte; details: read-out: CLH
Metric Name: hepatocyte CLint (µL/min/1e6 cells)

>  <Molecule Smiles>
CCNC(=O)c1ccc2c(c1)nc(C)n2[C@H]1CCN(CC2(O)CCCCC2)C[C@@H]1C

>  <Value Unit>
µL/min/1e6 cells

>  <Sign>
=

>  <Quantitative Result>
5.9

$$$$
>  <Molecule Smiles>
CCNC(=O)c1ccc2c(C3CCN(CC4(O)CCCCC4)CC3)c(-c3cccn(C)c3=O)nn2c1

>  <Value Unit>
µL/min/1e6 cells

>  <Sign>
<

>  <Quantitative Result>
1.8

$$$$
>  <Molecule Smiles>
CCNC(=O)c1ccc2c([C@H]3CCN(CC4(O)CCCCC4)C[C@@H]3C)c(C)nn2c1

>  <Value Unit>
µL/min/1e6 cells

>  <Sign>
=

>  <Quantitative Result>
4.1

$$$$
